# pKi listing for each entry below
target: E. coli β-galactosidase (Escherichia coli, UniProt P00722); construct: purchased Sigma Chemicals; experiment: Inhibition of E. coli β-galactosidase, Ki by kinetic studies; type: biochemical; conditions: 37 °C, pH 7.0; read-out: Ki β-gal E. coli
Sequence (P00722 2-1024 limits assumed): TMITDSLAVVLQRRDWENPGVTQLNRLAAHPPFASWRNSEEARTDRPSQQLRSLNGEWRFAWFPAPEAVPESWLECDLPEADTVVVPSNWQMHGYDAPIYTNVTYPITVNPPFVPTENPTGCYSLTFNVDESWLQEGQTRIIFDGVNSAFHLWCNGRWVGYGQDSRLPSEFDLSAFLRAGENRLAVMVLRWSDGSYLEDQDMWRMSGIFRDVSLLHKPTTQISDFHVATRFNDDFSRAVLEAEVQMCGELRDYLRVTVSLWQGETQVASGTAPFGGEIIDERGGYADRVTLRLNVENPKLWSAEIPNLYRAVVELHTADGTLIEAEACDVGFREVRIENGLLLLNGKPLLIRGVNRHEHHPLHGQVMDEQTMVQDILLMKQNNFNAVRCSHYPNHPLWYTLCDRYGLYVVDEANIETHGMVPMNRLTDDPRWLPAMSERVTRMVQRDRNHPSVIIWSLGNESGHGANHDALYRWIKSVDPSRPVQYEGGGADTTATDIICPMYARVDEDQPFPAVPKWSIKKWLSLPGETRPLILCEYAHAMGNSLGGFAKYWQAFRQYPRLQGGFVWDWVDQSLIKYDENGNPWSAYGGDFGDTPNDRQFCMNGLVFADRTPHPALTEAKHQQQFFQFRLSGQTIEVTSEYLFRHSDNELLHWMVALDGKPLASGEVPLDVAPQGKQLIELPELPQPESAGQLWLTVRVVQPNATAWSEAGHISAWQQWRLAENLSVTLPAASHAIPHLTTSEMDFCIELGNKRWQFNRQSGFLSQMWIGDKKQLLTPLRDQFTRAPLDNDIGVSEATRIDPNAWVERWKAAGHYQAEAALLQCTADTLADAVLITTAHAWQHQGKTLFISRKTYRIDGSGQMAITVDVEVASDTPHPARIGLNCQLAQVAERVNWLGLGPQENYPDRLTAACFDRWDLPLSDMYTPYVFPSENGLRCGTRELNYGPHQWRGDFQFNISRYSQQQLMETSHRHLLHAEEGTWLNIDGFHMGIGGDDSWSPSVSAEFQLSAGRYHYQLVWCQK
Recall that pKi is obtained by taking minus log10 of the concentration measured in molar.

MOLECULE SMILES: O=C(NCCCCCCN1C[C@H](O)[C@@H](O)[C@@H](O)[C@H]1CO)OCc1ccccc1
READOUT NAME: pKi
NUMBER: 6.40
//
MOLECULE SMILES: CC(C)(C)OC(=O)NCCCCCCN1C[C@H](O)[C@@H](O)[C@@H](O)[C@H]1CO
READOUT NAME: pKi
NUMBER: 5.62
//
MOLECULE SMILES: O=C(NCCCCCCN1C[C@H](O)[C@@H](O)[C@@H](O)[C@H]1CO)c1cccnc1
READOUT NAME: pKi
NUMBER: 6.08

Prompt: Identify measured pKi corresponding to CN(C)c1ccc(C(=O)NCCCCCCN2C[C@H](O)[C@@H](O)[C@@H](O)[C@H]2CO)cc1
Completion: 5.96

====

biological target: green coffee bean α-galactosidase (Coffea arabica, UniProt Q42656)
Sequence (Q42656 16-378): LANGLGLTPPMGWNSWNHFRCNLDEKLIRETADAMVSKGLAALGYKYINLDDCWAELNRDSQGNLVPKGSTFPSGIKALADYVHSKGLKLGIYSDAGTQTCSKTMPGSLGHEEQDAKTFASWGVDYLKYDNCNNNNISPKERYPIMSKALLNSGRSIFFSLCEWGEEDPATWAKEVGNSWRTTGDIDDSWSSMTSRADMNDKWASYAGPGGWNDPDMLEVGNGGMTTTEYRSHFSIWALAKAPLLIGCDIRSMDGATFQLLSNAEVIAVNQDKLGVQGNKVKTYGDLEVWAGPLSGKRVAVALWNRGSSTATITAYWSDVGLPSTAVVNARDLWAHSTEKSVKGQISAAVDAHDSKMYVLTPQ
Mark Satisfied only when Ki stays strictly below 2000 nM. Values equal to the cut-off are Not satisfied.

Sample answers from the record:
COMPOUND: CC(C)c1ccc(C(=O)NCCCCCCN2C[C@H](O)[C@@H](O)[C@@H](O)[C@H]2CO)cc1 [Compound 16]
TARGET OF ASSAY: green coffee bean α-galactosidase (Coffea arabica, UniProt Q42656)
CLASS LABEL: Not satisfied
//
COMPOUND: O=C(NCCCCCCN1C[C@H](O)[C@@H](O)[C@@H](O)[C@H]1CO)OCc1ccccc1 [Compound 22]
TARGET OF ASSAY: green coffee bean α-galactosidase (Coffea arabica, UniProt Q42656)
CLASS LABEL: Not satisfied
//
COMPOUND: CN(C)c1ccc(C(=O)NCCCCCCN2C[C@H](O)[C@@H](O)[C@@H](O)[C@H]2CO)cc1 [Compound 18]
TARGET OF ASSAY: green coffee bean α-galactosidase (Coffea arabica, UniProt Q42656)
CLASS LABEL: Satisfied
//
COMPOUND: O=C(CCCc1ccc2ccc3cccc4ccc1c2c34)NCCCCCCN1C[C@H](O)[C@@H](O)[C@@H](O)C1CO (stereo partly drawn) [Compound 19]
TARGET OF ASSAY: green coffee bean α-galactosidase (Coffea arabica, UniProt Q42656)
CLASS LABEL: Not satisfied
//
COMPOUND: CC(C)(C)OC(=O)NCCCCCCN1C[C@H](O)[C@@H](O)[C@@H](O)[C@H]1CO [Compound 20]
TARGET OF ASSAY: green coffee bean α-galactosidase (Coffea arabica, UniProt Q42656)
CLASS LABEL: Not satisfied

Here is another compound to look at.
Prompt: Decide: Ki of O=C(NCCCCCCN1C[C@H](O)[C@@H](O)[C@@H](O)[C@H]1CO)c1cccnc1 [Compound 17] strictly below 2000 nM?
Completion: Not satisfied

====

target: Agrobacterium sp. β-glucosidase/galactosidase (Agrobacterium sp., UniProt P12614); construct: made in house; assay: Inhibition of Agrobacterium sp. β-glucosidase/galactosidase (Abg), Ki by kinetic studies; format: biochemical; conditions: read-out: Ki β-glu/gal Abg; 37 °C, pH 7.0, substrate 4-nitrophenyl β-D-glucopyranoside
READOUT NAME: Ki
Just so you know, I need the unit written after the number.

Prompt: Identify measured Ki corresponding to CC(C)(C)OC(=O)NCCCCCCN1C[C@H](O)[C@@H](O)[C@@H](O)[C@H]1CO
Completion: 3 µM

====

Molecular target: Agrobacterium sp. β-glucosidase/galactosidase (Agrobacterium sp.)
Construct: made in house
Sequence (P12614 1-459): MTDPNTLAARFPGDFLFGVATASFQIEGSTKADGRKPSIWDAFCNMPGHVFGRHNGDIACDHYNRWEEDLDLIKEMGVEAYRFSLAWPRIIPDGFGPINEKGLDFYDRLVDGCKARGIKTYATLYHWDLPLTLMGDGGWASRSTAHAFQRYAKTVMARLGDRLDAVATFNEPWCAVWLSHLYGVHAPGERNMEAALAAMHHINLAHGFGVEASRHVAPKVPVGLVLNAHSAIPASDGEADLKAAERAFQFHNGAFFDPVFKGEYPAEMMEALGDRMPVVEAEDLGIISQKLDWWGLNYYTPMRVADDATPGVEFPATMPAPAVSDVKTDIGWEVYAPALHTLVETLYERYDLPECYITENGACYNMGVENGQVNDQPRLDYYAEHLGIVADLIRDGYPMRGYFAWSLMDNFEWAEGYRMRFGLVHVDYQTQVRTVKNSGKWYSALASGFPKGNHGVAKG
Assay: Inhibition of Agrobacterium sp. β-glucosidase/galactosidase (Abg), Ki by kinetic studies
Format: biochemical
READOUT NAME: Ki (µM)
Reply with just the number (in µM).

Observe how each entry below is paired with its result.
COMPOUND: O=C(CCCc1ccc2ccc3cccc4ccc1c2c34)NCCCCCCN1C[C@H](O)[C@@H](O)[C@@H](O)C1CO (some centres unmarked) [Compound 19]
Ki / µM: 0.06
--
COMPOUND: O=C(NCCCCCCN1C[C@H](O)[C@@H](O)[C@@H](O)[C@H]1CO)OCc1ccccc1 [Compound 22]
Ki / µM: 6
--
COMPOUND: CN(C)c1ccc(C(=O)NCCCCCCN2C[C@H](O)[C@@H](O)[C@@H](O)[C@H]2CO)cc1 [Compound 18]
Ki / µM: 3.8

Prompt: Identify measured Ki corresponding to CC(C)c1ccc(C(=O)NCCCCCCN2C[C@H](O)[C@@H](O)[C@@H](O)[C@H]2CO)cc1 [Compound 16]
Completion: 13

Prompt: Identify measured Ki corresponding to O=C(NCCCCCCN1C[C@H](O)[C@@H](O)[C@@H](O)[C@H]1CO)c1cccnc1 [Compound 17]
Completion: 1.5

====

Target: human lysosomal β-galactosidase (Homo sapiens)
Sequence (P16278 29-677): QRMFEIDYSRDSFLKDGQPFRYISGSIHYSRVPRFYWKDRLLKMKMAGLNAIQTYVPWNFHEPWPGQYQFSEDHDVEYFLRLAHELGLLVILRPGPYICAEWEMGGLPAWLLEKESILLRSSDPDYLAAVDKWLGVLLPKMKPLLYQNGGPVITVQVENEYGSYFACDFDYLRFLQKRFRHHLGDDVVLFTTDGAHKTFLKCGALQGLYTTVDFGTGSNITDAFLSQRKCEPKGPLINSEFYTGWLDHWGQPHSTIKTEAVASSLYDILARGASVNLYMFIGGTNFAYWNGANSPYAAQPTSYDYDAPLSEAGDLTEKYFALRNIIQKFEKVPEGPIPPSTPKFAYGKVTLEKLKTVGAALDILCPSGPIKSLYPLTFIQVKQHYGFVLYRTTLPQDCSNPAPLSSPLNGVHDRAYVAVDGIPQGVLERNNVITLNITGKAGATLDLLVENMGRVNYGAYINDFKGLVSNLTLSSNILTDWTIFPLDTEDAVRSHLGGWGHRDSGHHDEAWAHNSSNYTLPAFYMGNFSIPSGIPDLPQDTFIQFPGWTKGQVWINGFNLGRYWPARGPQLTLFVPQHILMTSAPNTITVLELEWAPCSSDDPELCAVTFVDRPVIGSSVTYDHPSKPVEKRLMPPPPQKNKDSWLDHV
# pIC50 listing for each entry below
Recall that pIC50 is obtained by taking minus log10 of the concentration measured in molar.

MOLECULE SMILES: O=C(NCCCCCCN1C[C@H](O)[C@@H](O)[C@@H](O)[C@H]1CO)OCc1ccccc1
TARGET OF ASSAY: human lysosomal β-galactosidase (Homo sapiens)
READOUT NAME: pIC50
NUMBER: 5.49

Field: next compound
Prompt: Identify measured pIC50 corresponding to CC(C)(C)OC(=O)NCCCCCCN1C[C@H](O)[C@@H](O)[C@@H](O)[C@H]1CO
Completion: 4.96

====

target: E. coli β-galactosidase (Escherichia coli, UniProt P00722); construct: purchased Sigma Chemicals; experiment: Inhibition of E. coli β-galactosidase, Ki by kinetic studies; assay type: biochemical
READOUT NAME: Ki (nM)
Reply with just the number (in nM).

COMPOUND: CC(C)c1ccc(C(=O)NCCCCCCN2C[C@H](O)[C@@H](O)[C@@H](O)[C@H]2CO)cc1
UNITS OF MEASURE: nM
Ki: 1300

Field: next compound
Prompt: Identify measured Ki corresponding to O=C(CCCc1ccc2ccc3cccc4ccc1c2c34)NCCCCCCN1C[C@H](O)[C@@H](O)[C@@H](O)C1CO (some centres unmarked)
Completion: 250
